Percent Effect overview
biological target: Ubiquitin-activating enzyme e1, putative (Leishmania donovani (strain BPK282A1)); assay: Leishmania donovani Ubiquitin Activating Enzyme (LdE1); type: functional; design: scale not given: direction of the effect not stated beside the values; settings: 30 µM
Results with a measured potency or affinity are listed apart.
Note: unit % is implicit; provide only the numeric part.

Some solved entries appear below for comparison.
CC(NC(=O)CCCOc1ccccc1)c1nnc2n1CCCCC2 (stereo not drawn) : 13.5
NC(=O)C1CCN(C(=O)c2cccc(CN3CCOCC3)c2)CC1 : 6.94
O=C(Cc1cccnc1)N1CCC2(CC1)CCN(C1CCOCC1)C2 : 0
Cc1cc(CN(C)C(=O)NC2CCN(Cc3ccccc3)C2)no1 (stereo not drawn) : 18.4
CCOCCCNC(=O)c1nn(CC)cc1Cl : 14.7
Cc1ncsc1-c1nnc(C2CCN(CC3CCCCC3)CC2)o1 : 14.7
Cc1ccc(C(=O)NC(C)CN2CCCC2=O)c(=O)[nH]1 (stereo not drawn) : 5.48
CN(Cc1ccc(Cl)s1)C1CCCN(c2cccnn2)C1 (stereo not drawn) : -18.4

Record summary for `Cc1nc(C(C)(C)NC(=O)Nc2cccc(C#N)c2)no1` : reported Percent Effect = 5.48

Note to self: Percent Effect recorded for `CCS(=O)(=O)N1CCc2ccc(NC(=O)Nc3cccc(SC)c3)cc21` was -20.8

GET /value?item= COCCN1CCN(Cc2cccc(C(N)=O)c2)CC1C (stereo not drawn) &field=Percent Effect returns 29.3

In plain terms, c1cc(CN2CCCC(c3noc(C4CC4)n3)C2)no1 (stereo not drawn) has a documented Percent Effect of -5.41

Value of Percent Effect reported for the compound `CCn1ccnc1CN1CCCN(C(=O)Cn2nc(C)cc2C)CC1` is 0

Field Percent Effect (entry `CCn1cc(CN(C)S(=O)(=O)c2cnn(CC)c2C)c(C)n1` ) reads 14.7

Percent Effect measured on `Cn1ccnc1N1CCN(C(=O)Cc2ccc(F)cc2)CC1` = 13

The compound identified as CCn1ncc2c1CCCC2NCc1cccc2c1OCCO2 (stereo not drawn) registered its Percent Effect at -6.33

Kindly note the recorded Percent Effect for Cc1nn(-c2ccccc2)cc1C(=O)N1CCCC(n2cccn2)C1 (stereo not drawn) , which is 13.3

response.value for O=C1COC2(COCCN(Cc3ccsc3)C2)CN1c1ccc(F)cc1 (stereo not drawn) (field: Percent Effect) = 1.3

Summary for this compound, `Cc1cc(NCc2cccnc2)n2nc(C)cc2n1` : Percent Effect is 2.7

Value of measured Percent Effect for the entry `COCCc1noc(CN(C)C(=O)c2cccc(N3CCCC3=O)c2)n1` : -2.53

Per the records, this compound ( `O=C(c1ccnnc1)N1CCN2C[C@H](Oc3cccc(F)c3)C[C@H]2C1` ) has Percent Effect equal to 8

Notebook: `Cc1cc2c(=O)n3c(nc2s1)CCN(Cc1ccncc1)CC3` , Percent Effect read as 4.05

Quick note, Percent Effect for `CCS(=O)(=O)N1CC[C@H](OC)[C@@H]1Cc1ccncc1` landed at 13.5

Record CC(=O)NCc1ccc(C(=O)N2CCCCC2Cn2cccn2)o1 (stereo not drawn) . Reported Percent Effect: 27

Please fill in: Percent Effect reported for O=C1CC(c2cccc(O)c2)c2c(c(C(=O)O)cn2-c2ccccc2)N1 (stereo not drawn) = 1.33

###

target: Proteasome subunit beta (Trypanosoma cruzi) (UniProt O96673); experiment: Trypanosoma cruzi proteasome chymotrypsin-like activity (TcProtChymo) assay.; type: functional; design: scale not given: in the data most compounds retested in dose-response had high values; conditions: 9.37 µM
Sequence (O96673 as listed by the source): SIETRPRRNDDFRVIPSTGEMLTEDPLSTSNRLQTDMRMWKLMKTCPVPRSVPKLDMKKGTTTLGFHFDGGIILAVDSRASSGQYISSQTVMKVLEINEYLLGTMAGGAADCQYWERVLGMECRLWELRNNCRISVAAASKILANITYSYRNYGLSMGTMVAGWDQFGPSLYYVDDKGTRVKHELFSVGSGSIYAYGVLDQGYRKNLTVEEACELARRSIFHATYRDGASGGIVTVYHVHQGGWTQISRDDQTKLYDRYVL
measurement.label: Percent Effect (%)
Answer format: numeric, % implied, no suffix.

# example entries with known answers
CNC(=O)c1cc2c(nc1NCC1CC1)CCN(c1ccncn1)CC2 : 9.61
CCCNCc1cc2c(C)cc(C)cc2n2c(=O)n(C)nc12 : 5.62
Cn1cnc2c1CCN(Cc1cccc(OCC(N)=O)c1)C2 : 15.3
CN(CCCc1cnn(C)c1)C(=O)C1CCOC1 (centres undefined) : 13.1
CC(C)C(NC(=O)NCCNc1ccccn1)c1cccs1 (centres undefined) : 10.8

Data point: Cc1ncccc1NC(=O)C1=NOC2(CCN(Cc3nccs3)C2)C1 (centres undefined) ; Percent Effect = 17.7

So for Cc1ccccc1CSc1nc(N)cc(N2CCOC(C(N)=O)C2)n1 (centres undefined) , the logged Percent Effect turned out to be 10

Given item `COc1ccccc1OCc1cc(C(=O)N2C[C@H](O)[C@@H](N(C)C)C2)n[nH]1` , the value recorded as its Percent Effect is 11.9

Form field Percent Effect, entry `COC1CC2(CCN(Cc3ccc4c(c3)OCO4)CC2)C1` : 10

Briefly, Percent Effect measured for `CC(C)c1ncc2c(n1)CN(Cc1cccc(OCC(N)=O)c1)CC2` : -1

Measured Percent Effect of CC(C(=O)N1CCc2ccccc2C1)n1cc(Br)cn1 (centres undefined) : 7.82

Field Percent Effect (entry c1cnc(-c2nc(CN3CCOC(Cn4cncn4)C3)cs2)nc1 (centres undefined) ) reads 9.91

Quick note, Percent Effect for CN(Cc1cccc(F)c1)C(=O)CN1CCOC(Cn2cccn2)C1 (centres undefined) landed at 3.86

Short answer for `Cn1cc(CN2CCCN(C(=O)c3cn4ccccc4n3)CC2)cn1` : Percent Effect was 20.1

// field: Percent Effect; key: `Cn1ccc(C(=O)N2CCC(Cc3cnc4[nH]ccc4c3)CC2)n1` ; value = 7.64

GET /value?item= `O=C(CCc1cc2n(n1)CCN(Cc1ncc[nH]1)C2)N1CCCC1` &field=Percent Effect returns 14.4

The recorded Percent Effect for `CCN(CC)c1ccc(NS(=O)(=O)c2cncc(F)c2)cn1` is 4.71

compound c1ccc2oc(CCCN3CCOC(Cn4cccn4)C3)nc2c1 (centres undefined) , Percent Effect observed: 0.889

Summary for this compound, O=C(NCCc1ccccc1)C1CCCN(c2ccc3nncn3n2)C1 (centres undefined) : Percent Effect is 17.6

The recorded Percent Effect for `CC(C)N1CCN(C(=O)Nc2cnn(CC(N)=O)c2)CC1` is 11.7

Value of Percent Effect reported for the compound `COc1cc2nc(C)n(CC(=O)O)c(=O)c2cc1OC` is 13.1

Briefly, Percent Effect measured for CNc1cc(C)nc(C2CN(Cc3ccc(C)nc3)CCO2)c1 (centres undefined) : 4.84

The recorded Percent Effect for entry `Cn1cc(C(=O)NC2CCN(C(=O)NCC3CCSCC3)CC2)cn1` equals 8.75

Data point: CC(C)[C@H](NC(=O)NC1CCS(=O)(=O)C1)C(=O)NCc1ccccc1Cl (some centres undefined) ; Percent Effect = 3.51
